- System: Fibrinogen (Alexa647-labelled)
- assay_name: fibrinogen binders on compound microarrays, profiling panel, artefact control for SMM control-protein annotation, biochemical, small-molecule microarray, 635/667 nm fluorescence (AID 1131);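 note: z-score merges 667 nm fluorescence with per-spot signal-to-noise over triplicate slides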
- applied_conditions: fibrinogen-A647 binding fluorescence, higher = more signal
parameter_measured: composite z-score

// composite z-score lookup, molecule = "CN(C)CCCNC(=O)[C@@H]1c2ccccc2C(=O)N(Cc2ccccc2Cl)[C@H]1c1ccc(CO)cc1" , result: 0.462

So for "C=C(/C(=C/C[C@H](OC(C)=O)c1cccc(OCCO)c1)c1cnc2ccccc2c1)C(C)C" , the logged composite z-score turned out to be -0.325

composite z-score for "O=C1O[C@H](c2ccccc2)[C@H](c2ccccc2)N2[C@H]1[C@@H](C(=O)O)[C@]1(C(=O)Nc3ccc(C#CC4=CCCCC4)cc31)[C@H]2c1ccc(O)cc1" is 0.987

The molecule listed as "O=C(NCCCCCNC(=O)/C(Cc1ccccc1)=N/O)OCc1ccccc1" has a reported composite z-score of 0.106

====

- assay_name: basal MM1S mitochondrial membrane potential changes, profiling panel, cell-based, JC-1 fluorescence, 24 h, 100 nL compound (AID 1170); note: test concentration not given here
- applied_conditions: higher = more signal
Short version: z-score at least -0.7 is Fulfilled, less is Not fulfilled.

Solved cases below.
[N-]=[N+]=NCc1ccccc1[C@@H]1OC(c2ccc(OCCCO)cc2)=N[C@]1(CCS(=O)(=O)c1ccccc1)C(=O)NCC(O)CO (stereo partly specified) : Fulfilled
Cc1cc(C)c(C(O)C2C=CC3C(=O)N(c4ccccc4)C(=O)C3N2Nc2ccc(C(C)C)cc2)c(C)c1 (stereo unspecified) : Fulfilled
COc1ccc([Si](C)(C)[C@@H]2[C@@H](CC(=O)N(CCO)Cc3ccccc3)O[C@]3(C(=O)N(Cc4cccc(N5CCOC5=O)c4)c4ccccc43)[C@H]2C)cc1 : Not fulfilled
CC(C)C(=C=CC[C@H](O)c1ccc(OCCO)cc1)C[C@H](O)c1ccccn1 : Fulfilled
C=CCN1C(=O)[C@@]2(O[C@@H](CCn3cc([C@H](O)c4ccccc4)nn3)[C@H]([Si](C)(C)c3ccc(OC)cc3)[C@H]2C)c2cc(N3CCC3=O)ccc21 : Fulfilled
C=CC[C@@]1(C(=O)N2CCOCC2)N=C(c2ccc(OCCCO)cc2)O[C@@H]1c1ccccc1CN=[N+]=[N-] : Not fulfilled
COCCOC(=O)N1C(=O)[C@@]2(c3cc(C#CC4=CCCCC4)ccc31)[C@H](c1ccc(OCCO)cc1)N1[C@H](c3ccccc3)[C@H](c3ccccc3)OC(=O)[C@H]1[C@@H]2C(=O)NC[C@H](O)c1ccccc1 : Not fulfilled
CC(C)C(=C=CC[C@H](O)c1cccc(OCCO)c1)C[C@H](O)c1cc(Cl)cc(Cl)c1O : Not fulfilled

Is z-score for [N-]=[N+]=Nc1ccccc1[C@@H]1OC(c2ccc(OCCCO)cc2)=N[C@]1(Cc1ccccc1)C(=O)NCC(O)CO (stereo partly specified) at or above -0.7?
Fulfilled

Decide: is the reported value of z-score for "O=C1N(Cc2ccccc2)Cc2ccccc2[C@@H]2OC(c3ccc(OCCCO)cc3)=N[C@]12CCS(=O)(=O)c1ccccc1" equal to or greater than -0.7?
Fulfilled

Threshold query (z-score >= -0.7) on "COCCOC(=O)N1C(=O)[C@@]2(c3cc(C#CC4=CCCCC4)ccc31)[C@H](c1ccc(OCCO)cc1)N1[C@H](c3ccccc3)[C@H](c3ccccc3)OC(=O)[C@H]1[C@@H]2C(=O)N1CCN(c2ncccn2)CC1"
Not fulfilled

Given "COC(=O)c1ccc([C@H](NC(=O)c2ccco2)[C@]2(C)C[C@H]2C2CCCCC2)cc1" , state whether its z-score is at least -0.7.
Not fulfilled

Given the entry "C=CCOC(=O)[C@H]1[C@@H]2C(=O)O[C@@H](c3ccccc3)[C@@H](c3ccccc3)N2[C@@H](c2ccc(OCCOC(=O)[C@@H]3C[C@@H]4C(=O)N5CCC[C@H]5C(=O)N4[C@@H]3c3ccc(O)cc3)cc2)[C@]12C(=O)Nc1ccc(I)cc12" , answer whether its z-score meets or surpasses -0.7.
Not fulfilled

====

- assay_name: E. coli growth modulation, two-sided OD650, primary screen, E. coli filamentation project, strain DRC41, 24 h (AID 1093);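 note: MC1000 strain lacking acrAB efflux and sulA so SOS filamentation is blocked; test concentration not given here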
- applied_conditions: OD650, 24 h, higher = more signal, called active from +8 up or from −8 down
parameter_measured: z-score
Simply state the number, no unit and no words.

Below, 4 molecules whose answers are already recorded.
COC(=O)Cn1c(C(=O)N(C)C)cc2c1C[C@H]1CN(C(=O)c3ccccc3)[C@@](Cc3ccc(F)cc3)(C(=O)OC)[C@@H]21 : -0.581
CC(C)(C)OC(=O)CC[C@@]1(C(=O)NCc2ccccc2)N=C(c2ccc(OCCCO)cc2)O[C@@H]1c1ccccc1N=[N+]=[N-] : 0.516
O=C1O[C@@H](c2ccccc2)[C@@H](c2ccccc2)N2[C@@H](c3ccc(O)cc3)[C@]3(C(=O)Nc4ccc(C#CC5=CCCCC5)cc43)[C@@H](C(=O)NC[C@H](O)c3ccccc3)[C@H]12 : 1.24
COCC1=C2[C@@H](CCc3ccccc3)OB(O)C[C@@H]2[C@@H]2C(=O)C=CC(=O)[C@@H]2C1 : -0.224

Noted for [N-]=[N+]=NCc1ccccc1[C@H]1OC(c2ccc(OCCCO)cc2)=N[C@@]1(CCS(=O)(=O)c1ccccc1)C(=O)NCC(O)CO (some centres undefined) : its z-score reads -0.28

Short answer for "C=CCN1Cc2ccccc2[C@H]2OC(c3ccc(OCCCO)cc3)=N[C@@]2(CC=C)C1=O" : z-score was 0.763

Value of measured z-score for the entry "C=C(COC)/C(=C/C[C@H](OC(=O)c1ccncc1)c1ccccc1OCCO)c1cnc2ccccc2c1" : 0.395

Looking up C=CCC(OC(C)=O)[C@@H]1[C@@H](N(Cc2cc3ccccc3o2)C(=O)c2ccc(C)cc2)c2cc(OCCCO)ccc2N1C(=O)Cc1ccc(OC)cc1 (some centres undefined) , I found its z-score recorded as 1.21

====

- Tested on: Noggin (protein binding on small-molecule microarray)
- assay_name: Noggin binders on small-molecule microarray, primary screen, biochemical, 635/667 nm fluorescence (AID 1095);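 note: score merges 667 nm feature fluorescence with signal to noise over triplicate slides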
- applied_conditions: 635 nm fluorescence, higher = more signal
The following molecules are listed with their measured composite z-score values.
Just the number, please, no unit attached.

Please review the entries below; each comes with its answer.
CCOC(=O)C[C@H]1[C@H](OC(=O)c2ccccc2-c2ccccc2)[C@@H](NC(=O)C2CCCCC2)c2cc(OCCCO)ccc2N1C(=O)Cc1ccc(OC)cc1 : 0.159
Cc1ccc(S[C@]2(C(=O)NCC(F)(F)F)CC(=O)N(Cc3ccccc3C(F)(F)F)[C@@H]2c2ccc(CO)cc2I)cc1 : -0.859
CCOc1cc(C(O)C2C=CC3C(=O)N(C)C(=O)C3N2Nc2ccccc2)ccc1O (stereo not given) : -0.386
C=CC[C@]1(C(=O)O)COC(c2ccc(OCCCO)cc2)=N1 : 0.253
COC(=O)[C@@]1(Cc2ccc(OC)cc2)[C@H]2c3cc(C(=O)N(C)C)n(CCO)c3C[C@H]2CN1C(=O)c1ccccc1 : -1.13

The molecule listed as "O=C1O[C@@H](c2ccccc2)[C@@H](c2ccccc2)N2[C@@H](c3ccccc3OCCO)[C@]3(C(=O)Nc4ccc(C#CCCO)cc43)[C@@H](C(=O)N3CCCCCCC3)[C@H]12" shows composite z-score equal to 2.28

molecule "[N-]=[N+]=NCc1ccccc1C[C@@]1(C(=O)N2CCOCC2)N=C(c2ccc(OCCCO)cc2)O[C@@H]1c1ccccc1" , composite z-score observed: -0.519

The value of composite z-score measured for the molecule [N-]=[N+]=Nc1ccccc1[C@@H]1OC(c2ccc(OCCCO)cc2)=N[C@]1(Cc1ccccc1)C(=O)NCC(O)CO (stereo not given in full) turned out to be 0.244

Item: "CCOC(=O)C1=C[C@@H](c2ccccc2)N(S(=O)(=O)c2ccc(C)cc2)[C@H]1c1ccccc1Cl" | composite z-score: 0.985

The molecule O=C1C2C=CC(C(O)c3ccccc3)N(Nc3ccccc3F)C2C(=O)N1c1ccccc1 (stereo not given) showed composite z-score equal to -0.0199

====

- assay_name: MM1S myeloma cell viability, profiling panel, resazurin fluorescence, basal, 24 h, PK04 Diversity Set (AID 1174);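 note: MM1S multiple myeloma cell line; test concentration not given here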
- applied_conditions: higher = more signal, called active from +8 up or from −8 down
Calls of active or inactive are those of the source.
parameter_measured: z-score

"C#CCN([C@@H](Cc1ccc(O)cc1)C(=O)OC)[C@@H](/C=C/C1CC1)[C@H](O)Cc1ccccc1" yielded z-score of -0.758 (inactive)

The reported z-score of the compound CC1CC/C=C\[C@H]2OC34C=CCN(C(C)C)C(=O)[C@H]3N(CCCCCCO)C(=O)[C@@H]4C2C(=O)O1 (some centres not stated) was 0.794 (inactive)

Memo: C=CCC(OC(C)=O)[C@@H]1[C@@H](N(Cc2cc3ccccc3o2)C(=O)Cc2ccc(F)cc2)c2cc(OCCCO)ccc2N1C(=O)c1ccc2ccccc2c1 (some centres not stated) , reported z-score: 0.514 (inactive)

The value of z-score measured for the compound "COCCOC(=O)N1C(=O)[C@@]2(c3cc(C#CCC(C(=O)OC)C(=O)OC)ccc31)[C@H](C(=O)N1CCc3cc(OC)c(OC)cc3C1)[C@H]1C(=O)O[C@H](c3ccccc3)[C@H](c3ccccc3)N1[C@@H]2c1ccc(OCCO)cc1" turned out to be -0.348 (inactive)

z-score recorded for this compound, CCC(CC)C(O)C1C=CC2C(=O)N(c3ccccc3)C(=O)C2N1Nc1ccc(C(C)C)cc1 (configuration not stated) , is -0.636 (inactive)

// z-score value for "CC(C)C(=C=CC[C@H](O)c1ccc(OCCO)cc1)C[C@H](O)c1ccccn1" : 0.143 (inactive)

Looking up CC(C)N1CC=CC23O[C@@H]4C=CCOC(=O)[C@@H]4[C@H]2C(=O)N(CCCO)[C@@H]3C1=O (some centres not stated) , I found its z-score recorded as 1.34 (inactive)

Numbers sourced from PubChem BioAssay.
